molecular target: PKM2 (Homo sapiens, UniProt P14618); assay: PKM2 Assay (activation; LDH-coupled, NADH absorbance at 340 nm); assay type: biochemical; conditions: PKM2 50 ng/well, ADP 0.7 mM, PEP 0.15 mM, no FBP in Reaction Mix
Sequence (P14618 whole entry): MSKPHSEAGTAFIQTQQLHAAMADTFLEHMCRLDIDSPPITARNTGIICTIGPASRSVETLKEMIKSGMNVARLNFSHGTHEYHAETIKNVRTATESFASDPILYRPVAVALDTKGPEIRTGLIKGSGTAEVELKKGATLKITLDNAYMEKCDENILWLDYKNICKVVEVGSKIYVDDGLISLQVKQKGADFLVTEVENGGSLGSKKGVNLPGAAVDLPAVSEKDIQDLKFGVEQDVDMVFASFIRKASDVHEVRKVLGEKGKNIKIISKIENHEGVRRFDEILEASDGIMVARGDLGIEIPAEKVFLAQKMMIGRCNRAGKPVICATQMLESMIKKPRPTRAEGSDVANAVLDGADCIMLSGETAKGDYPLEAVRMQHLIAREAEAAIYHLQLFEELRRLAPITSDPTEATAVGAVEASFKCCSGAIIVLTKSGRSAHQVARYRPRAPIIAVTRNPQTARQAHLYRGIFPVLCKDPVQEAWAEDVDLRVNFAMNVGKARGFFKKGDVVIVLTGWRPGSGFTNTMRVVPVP
Reported metric: AC50

Task item: Find the recorded AC50 belonging to COc1ccc(C)cc1S(=O)(=O)Nc1ccc2sc(=O)n(C)c2c1 and report it.
Reply: 1000 to 10000 nM

Task item: Next entry: Cn1c(=O)oc2cc(S(=O)(=O)Nc3cc(F)cc(F)c3)ccc21
Reply: 1000 to 10000 nM

Task item: Next entry: Cc1cc2c(cc1S(=O)(=O)Nc1ccccc1Cl)oc(=O)n2C
Reply: 1000 to 10000 nM

Task item: Next entry: COCCn1c(=O)oc2cc(S(=O)(=O)Nc3ccc(F)c(Cl)c3)ccc21
Reply: < 1000 nM

Task item: Next entry: COCCn1c(=O)oc2cc(S(=O)(=O)Nc3ccc(F)c(C)c3)cc(C)c21
Reply: < 1000 nM

Task item: Next entry: Cc1cc2oc(=O)n(C)c2cc1S(=O)(=O)Nc1ccccc1F
Reply: 1000 to 10000 nM

Task item: Next entry: Cn1c(=O)sc2cc(S(=O)(=O)Nc3cccc(Cl)c3)ccc21
Reply: < 1000 nM

Task item: Next entry: Cc1cc2oc(=O)n(C)c2cc1S(=O)(=O)Nc1cc(F)cc(F)c1
Reply: 1000 to 10000 nM

Task item: Next entry: Cc1cc(NS(=O)(=O)c2ccc3c(c2)oc(=O)n3C)ccc1Cl
Reply: < 1000 nM

* * *

AC50 overview
biological target: PKM2 (Homo sapiens, UniProt P14618); assay: PKM2 Assay (activation; LDH-coupled, NADH absorbance at 340 nm); format: biochemical; conditions: PKM2 50 ng/well, ADP 0.7 mM, PEP 0.15 mM, no FBP in Reaction Mix

Record smiles	Measured target	AC50
Cn1c(=O)sc2ccc(NS(=O)(=O)c3ccccc3)cc21	PKM2 (Homo sapiens, UniProt P14618)	10 to 50 µM

Task item: Find the recorded AC50 belonging to COc1ccc(S(=O)(=O)Nc2cc3c(cc2Cl)oc(=O)n3C)cc1OC and report it.
Reply: 10 to 50 µM

Task item: Next entry: Cc1cc2oc(=O)n(C)c2cc1NS(=O)(=O)c1ccc(F)c(F)c1
Reply: > 100 µM

Task item: Next entry: Cc1cc2oc(=O)n(C)c2cc1NS(=O)(=O)c1c(F)cccc1F
Reply: > 100 µM

* * *

target: PKM2 (Homo sapiens); experiment: PKM2 Assay (activation; LDH-coupled, NADH absorbance at 340 nm); assay type: biochemical; conditions: PKM2 50 ng/well, ADP 0.7 mM, PEP 0.15 mM, no FBP in Reaction Mix
AC50 overview

Compound	Measured target	AC50
Cn1c(=O)sc2cc(S(=O)(=O)Nc3ccc4ncccc4c3)ccc21	PKM2 (Homo sapiens)	1 to 10 µM
Cn1c(=O)sc2ccc(NS(=O)(=O)c3cccs3)cc21	PKM2 (Homo sapiens)	10 to 50 µM
Cn1c(=O)oc2cc(F)c(S(=O)(=O)N3CCN(S(=O)(=O)c4ccc5c(c4)OCCO5)CC3)cc21	PKM2 (Homo sapiens)	< 1 µM
Cc1cc(C)cc(NS(=O)(=O)c2cc3c(cc2F)oc(=O)n3C)c1	PKM2 (Homo sapiens)	< 1 µM
Cc1cc2sc(=O)sc2cc1S(=O)(=O)Nc1ccccc1F	PKM2 (Homo sapiens)	10 to 50 µM

Task item: Kindly state the measured AC50 obtained for CC(=O)c1ccc(S(=O)(=O)Nc2cc3c(cc2C)oc(=O)n3C)cc1 with PKM2 (Homo sapiens).
Reply: 10 to 50 µM

Task item: Next entry: Cn1c(=O)oc2cc(S(=O)(=O)Nc3ccccc3)ccc21
Reply: 1 to 10 µM

// provenance: patent US8501953B2
